Attribution: ChEMBL document CHEMBL5034010

System: Enterobacter cloacae
METHOD_SUMMARY: Inhibition of Metallo-beta-lactamase IMP-1 in Enterobacter cloacae clinical isolate assessed as MIC for meropenem antibacterial activity at 32 ug/ml (reference value: 32 ug/ml)
CONDITION: dose 32.0 µg/ml
ENDPOINT: MIC

Here are 2 compounds together with their reported answers.
[[record]]
compound = "O=C(Cc1ccccc1)N[C@@H]1C(=O)N2C(C(=O)O)=C(CSCc3ccccc3)CS[C@H]12"
recorded_value = "8 µg/mL"

[[record]]
compound = "O=C(O)c1cccc(C(=O)O)n1"
recorded_value = "16 µg/mL"


Find the recorded MIC belonging to O=C(Cc1ccccc1)N[C@@H]1C(=O)N2C(C(=O)O)=C(CS[C@H](Cc3ccccc3)C(=O)O)CS[C@H]12 and report it. 1 µg/mL

Same for O=C(Cc1ccccc1)N[C@@H]1C(=O)N2C(C(=O)O)=C(CSC(C(=O)O)c3ccccc3)CS[C@H]12 (some centres undefined) 1 µg/mL
